Give growth inhibition for every item shown.
test: inhibition of 3D7 malaria parasite growth – strain 3D7 (AID 2306);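 note: 0% = DMSO wells and 100% = chloroquine plus artemisinin control wells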; details: P. falciparum 3D7 erythrocytic growth, LDH absorbance, 72 h; at 2 µM; hits give high values
Numbers only here, please. The scale is %.

Lookup: Which growth inhibition is listed for COc1ccc(Nc2nc(NN=Cc3cc(Cl)ccc3O)nc(Nc3ccccc3)n2)cc1 ?
Found: 100

Lookup: Try this compound next: CCOc1cc(C=NNc2nc(C)cc(-n3nc(C)cc3C)n2)ccc1O
Found: 93

Lookup: Try this compound next: CN(C)C[C@H](O)[C@@H](c1ccccc1)c1ccc(Cl)cc1
Found: 99

Lookup: Try this compound next: COc1ccc2nc(C)cc(NN=Cc3cc(C)ccc3O)c2c1
Found: 100

Lookup: Try this compound next: CCCC[C@@H](C(=O)NCc1ccccc1C(F)(F)F)N1C(=O)CCC1C(=O)Nc1ccc([N+](=O)[O-])cc1 (stereo partly specified)
Found: 94

Lookup: Try this compound next: Cc1ccc(-c2cncc(-c3cc(NC4CCN(Cc5ccccc5)CC4)nc(-c4ccccc4)n3)c2)cc1
Found: 100

Lookup: Try this compound next: Oc1c(C=Nn2cnnc2)sc2ccccc12
Found: 93

Lookup: Try this compound next: COc1cc(C=NNc2ccnc3cc(Cl)ccc23)ccc1O
Found: 101

Lookup: Try this compound next: COc1ccc2nc(/N=C(/N)NC(=O)Nc3ccccc3)nc(C)c2c1
Found: 90

Lookup: Try this compound next: C[C@@H]([C@@H](CCCc1ccc(Cl)cc1)C(=O)N[C@H](C(=O)Nc1cccnc1)C(C)(C)C)N(O)C=O
Found: 100

Lookup: Try this compound next: ON=C1CCc2cc(-c3nc(-c4ccc(OCCN5CCCCC5)cc4)[nH]c3-c3ccncc3)ccc21
Found: 99

Lookup: Try this compound next: O=[N+]([O-])c1ccc(Nc2nc(NN=Cc3cc(Cl)cc(Cl)c3O)nc(Nc3ccccc3)n2)cc1
Found: 100

Lookup: Try this compound next: O=[N+]([O-])c1cccc(-c2nc3ccc(C4=N[C@H]5CCCC[C@H]5N4)cc3[nH]2)c1
Found: 101

Lookup: Try this compound next: CC(=NNC(N)=O)C1=C(O)C(c2ccccc2)N(C2CCCCC2)C1=O (stereo unspecified)
Found: 93

Lookup: Try this compound next: CC(C)C[C@@H](C(=O)N[C@H](C(=O)Nc1nccs1)C(C)(C)C)[C@H](CCC(F)(F)F)N(O)C=O
Found: 97

Lookup: Try this compound next: CN(C)C(=S)NN=Cc1cccc(O)c1O
Found: 91

###

experiment: human hepatoma cell viability loss – ATP luminescence, cytotoxicity control for P. falciparum antimalarial project, primary screen (AID 2303); details: HepG2 viability, 24-48 h, at 10 µM;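 note: 0% = DMSO wells and 100% = digitonin-killed cells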
Activity calls are given as the source filed them.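 How the source made its calls: active means inhibition above 50%; inactive means the rest.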
Can you answer with just one of these options? True for active, False for inactive

Lookup: Recorded test outcome, item CN(C)c1nc(NCc2ccccc2)nc(NN=Cc2cc([N+](=O)[O-])ccc2O)n1
Found: False

Lookup: Try this compound next: ON=C1CCc2cc(-c3nc(-c4cccc(OCCNCc5ccc(F)cc5)c4)[nH]c3-c3ccncc3)ccc21
Found: True

Lookup: Try this compound next: C=CC[C@H](C[C@H](O)[C@H](Cc1ccccc1)NC(=O)c1ccc(-n2cccn2)cc1)C(=O)NC1CCCCC1
Found: False

Lookup: Try this compound next: C[C@@H]([C@@H](CCCc1ccc(Cl)cc1)C(=O)N[C@H](C(=O)Nc1cccnc1)C(C)(C)C)N(O)C=O
Found: False

Lookup: Try this compound next: O=C(/C=C/c1ccc(Cl)c(Cl)c1)NCCCCCN1CC[C@H](c2c[nH]c3ccccc23)[C@@H](O)C1
Found: False

Lookup: Try this compound next: NC(N)=NN=Cc1c[nH]c2ccc(-c3ccccc3)cc12
Found: False

Lookup: Try this compound next: CN(C)CCCOc1ccc(-c2nc(-c3ccc4c(c3)CCC4=NO)c(-c3ccncc3)[nH]2)cc1
Found: True

Lookup: Try this compound next: CN(C)c1cc(NN=Cc2cc(Cl)ccc2O)nc(N(C)C)n1
Found: False

Lookup: Try this compound next: CCn1c(C=Cc2cc(Br)ccc2O)nc2ccccc2c1=O
Found: False

Lookup: Try this compound next: CC[C@@H]([C@@H](CC(C)C)C(=O)N[C@@H](CCCCNC(=O)OCc1ccccc1)C(=O)Nc1ccccn1)N(O)C=O
Found: False

Lookup: Try this compound next: N=C(N)c1ccc(C=Cc2ccc(C(=N)N)cc2O)cc1
Found: False

Lookup: Try this compound next: Nc1ccc(-c2nc3cc(C4=N[C@H]5CCCC[C@H]5N4)ccc3o2)cc1[N+](=O)[O-]
Found: False

Lookup: Try this compound next: Oc1cccc(-c2nc(-c3ccccc3)c(-c3ccc4oc5ccc(-c6[nH]c(-c7cccc(O)c7)nc6-c6ccccc6)cc5c4c3)[nH]2)c1
Found: False

Lookup: Try this compound next: ON=C1CCc2cc(-c3cc(-c4ccc(OC5CCNCC5)cc4)oc3-c3ccncc3)ccc21
Found: False

Lookup: Try this compound next: Oc1ccc(C=NNC(=S)Nc2cccc3ccccc23)c(O)c1
Found: False

Lookup: Try this compound next: O=[N+]([O-])c1ccc(Nc2nc(NN=Cc3cc(Cl)cc(Cl)c3O)nc(Nc3ccccc3)n2)cc1
Found: False

Lookup: Try this compound next: CCCCCC(C)C(C)c1cc(O)c2c(c1)OC(C)(C)CC2=Cc1ccncc1 (configuration not stated)
Found: False

Lookup: Try this compound next: CC(=NNC(N)=O)C1=C(O)C(c2ccccc2)N(C2CCCCC2)C1=O (configuration not stated)
Found: True

Lookup: Try this compound next: O=[N+]([O-])c1cccc(-c2nc3ccc(C4=N[C@H]5CCCC[C@H]5N4)cc3[nH]2)c1
Found: False

Lookup: Try this compound next: COc1cc(-c2nc(-c3ccc4c(c3)CCC4=NO)c(-c3ccncc3)[nH]2)ccc1OCCN1CCN(C)CC1
Found: True

Lookup: Try this compound next: Oc1cccc(-c2nc(-c3cccc(I)c3)c(-c3ccc(-c4nc(-c5cccc(O)c5)[nH]c4-c4cccc(I)c4)cc3)[nH]2)c1
Found: False

Lookup: Try this compound next: O=C(/C=C/c1ccc(Cl)c(Cl)c1)NCCCCCN1CC[C@H](c2c[nH]c3ccccc23)[C@H](O)C1
Found: False

Lookup: Try this compound next: COc1ccc2nc(/N=C(/N)NC(=O)Nc3ccccc3)nc(C)c2c1
Found: False

Lookup: Try this compound next: Oc1ccc2ccccc2c1C=NNc1nc(Nc2ccccc2)nc(Nc2ccccc2)n1
Found: True

Lookup: Try this compound next: COc1ccc(Nc2nc(NN=Cc3cc(Br)ccc3O)nc(Nc3ccc([N+](=O)[O-])cc3)n2)cc1
Found: False

Lookup: Try this compound next: CO[C@H](C)[C@H](NC(=O)[C@H](CC(C)C)[C@H](CCC(F)(F)F)N(O)C=O)C(=O)Nc1nccs1
Found: False

Lookup: Try this compound next: Cc1[nH]c2c(c(=O)c1Cl)-c1ccc(Oc3cccc(C(F)(F)F)c3)cc1C2=O
Found: False

Lookup: Try this compound next: CC1CCC(C[C@@H](C(=O)N[C@@H](CCC(=O)N2CCCCC2)C(=O)Nc2nccs2)[C@H](C(C)C)N(O)C=O)CC1 (some centres not stated)
Found: False

Lookup: Try this compound next: COc1cc(-c2nc(-c3ccc4c(c3)CCC4=NO)c(-c3ccncc3)[nH]2)ccc1OCCN1CCCCC1
Found: True

Lookup: Try this compound next: O=C(Nc1cccc(-c2nn3ccccc3c2-c2ccnc(Nc3ccc(-c4cc[nH]n4)cc3)n2)c1)c1c(F)cccc1F
Found: True

Lookup: Try this compound next: C=CC[C@H](C[C@H](O)[C@H](Cc1ccccc1)NC(=O)c1ccc(-c2cccnn2)cc1)C(=O)NC1CCCCC1
Found: False

Lookup: Try this compound next: O=C(NC=Nc1cc([N+](=O)[O-])c(-c2cccnc2)n1-c1ccc(O)cc1)c1ccccc1
Found: False

Cited source: PubChem BioAssay
